System: S. aureus ATCC29213
ASSAY_OVERVIEW: MIC, broth dilution
Format: cell-based, Staphylococcus aureus
TEST_CONDITIONS: CLSI broth dilution, MHB, 6.25 × 10^5 cfu per ml, 37°C, 20 h, OD630, at least three repeats
Where a SMILES comes first, the peptide text is derived from it.
MEASUREMENT_NAME: MIC (µg/mL)
// note: answer is a bare numeric in µg/mL

CC[C@H](C)[C@H](NC(=O)[C@H](CCCCN)NC(=O)[C@H](CCCCN)NC(=O)[C@@H](NC(=O)[C@@H](N)Cc1ccccc1)[C@@H](C)CC)C(=O)N[C@@H](C)C(=O)N[C@@H](CCCCN)C(=O)N[C@@H](CC(C)C)C(=O)N[C@@H](CC(C)C)C(=O)N[C@@H](CCCNC(=N)N)C(=O)N[C@@H](CCCCN)C(=O)N[C@H](C(=O)N[C@@H](Cc1ccccc1)C(N)=O)[C@@H](C)CC [Kn2-7(R4K_R7K)] (H-FIKKIAKLLRKIF-NH2) = 5
CC[C@H](C)[C@H](NC(=O)[C@H](CCCNC(=N)N)NC(=O)[C@H](CCCCN)NC(=O)[C@@H](NC(=O)[C@@H](N)Cc1ccccc1)[C@@H](C)CC)C(=O)N[C@@H](C)C(=O)N[C@@H](CCCNC(=N)N)C(=O)N[C@@H](CC(C)C)C(=O)N[C@@H](CC(C)C)C(=O)N[C@@H](CCCNC(=N)N)C(=O)N[C@@H](CCCNC(=N)N)C(=O)N[C@H](C(=O)N[C@@H](Cc1ccccc1)C(N)=O)[C@@H](C)CC [Kn2-7(K11R)] (H-FIKRIARLLRRIF-NH2) = 5

Give a short answer stating reported MIC for CC[C@H](C)[C@H](NC(=O)[C@H](CCCNC(=N)N)NC(=O)[C@H](CCCNC(=N)N)NC(=O)[C@@H](NC(=O)[C@@H](N)Cc1ccccc1)[C@@H](C)CC)C(=O)N[C@@H](C)C(=O)N[C@@H](CCCNC(=N)N)C(=O)N[C@@H](CC(C)C)C(=O)N[C@@H](CC(C)C)C(=O)N[C@@H](CCCNC(=N)N)C(=O)N[C@@H](CCCCN)C(=O)N[C@H](C(=O)N[C@@H](Cc1ccccc1)C(N)=O)[C@@H](C)CC [Kn2-7(K3R)] (H-FIRRIARLLRKIF-NH2) .
5
